- System: synthesis of LTB4 in human whole blood
- Protocol text: Human whole blood LTB4 production inhibition assay
- Type: cell-based
- Test settings: calcimycin stimulated, read-out: hWB LTB4 IC50
Measurement name: pIC50
Please note pIC50 is a logarithmic value: minus log10 of concentration in mol/L. Answer with that number alone.

Look at this compound and give its reported pIC50. Nc1ncc(-c2ccc(C3(c4noc(-c5cnn(C(F)F)c5)n4)CCC3)cn2)cn1 [Example 66] 6.70

Look at this compound and give its reported pIC50. CC(C)(CO)Nc1ccc(-c2nc(C3(c4ccc(-c5cnc(N)nc5)nc4)CCC3)no2)cn1 [Example 21] 6.60

Look at this compound and give its reported pIC50. Cc1nc(C)c(-c2nc(C3(c4ccc(-c5cnc(N)nc5)nc4)CCC3)no2)s1 [Example 94] 6.19

Look at this compound and give its reported pIC50. Nc1ncc(-c2ccc(C3(c4noc(-c5ccc(NC(CO)CO)nc5)n4)CCC3)cn2)cn1 [Example 33] 5.59

Look at this compound and give its reported pIC50. Nc1ncc(-c2ccc(C3(c4noc(-c5ccc6nccn6c5)n4)CCC3)cn2)cn1 [Example 27] 6.38

Look at this compound and give its reported pIC50. CCOC(=O)CCN1CCN(c2ccc(-c3nc(C4(c5ccc(-c6cnc(N)nc6)nc5)CCC4)no3)cn2)CC1 [Example 47] 6.77
